ASSAY: Brain protein binding, equilibrium dialysis
EXPERIMENTAL_SETUP: mouse, brain homogenate
TEST_READOUT: fraction unbound at 5 h, 1 µM
Number only, please.

Lab note: CN1C2CC1CN(c1ccc(Nc3nc(OCC(F)(F)F)c4cc[nH]c4n3)cc1)C2 [Compound 28] gave fraction unbound at 5 h, 1 µM of 0.007

----------
As shown below, each of these molecules has a reported Kp uu at 2 h value.
ASSAY: Mouse pharmacokinetic study, 5 mg/kg I.P. cassette
EXPERIMENTAL_SETUP: male, CD-1, mouse, brain, ip
Number only, please.

CC(C)N1CCN(c2ccc(Nc3nc(OCc4ncnn4C)c4cc[nH]c4n3)cc2)CC1.O=CO = 0.06
CN1CC2(C1)CN(c1ccc(Nc3nc(OCC4CC4(F)F)c4cc[nH]c4n3)cc1)C2 (stereo not shown) = 0.51
CC(C)N1CCN(c2ccc(Nc3nc(OCC4CC4)c4cc[nH]c4n3)cc2)CC1 = 2.29

Here is the next item to consider.
Lab note: CC(C)N1CCN(c2ccc(Nc3nc(OCC4CCOC(C)(C)C4)c4nc[nH]c4n3)cc2)CC1 (stereo not shown) gave Kp uu at 2 h of 0.07

----------
As shown below, each of these compounds has a reported Papp at 60 min, 10 µM value.
System: MDR1 (P-gp)
ASSAY: MDR1-MDCK permeability, bi-directional (Cyprotex)
EXPERIMENTAL_SETUP: dog (canine)
API: value field is a number in nm/s; no unit string.

Some compounds with known Papp at 60 min, 10 µM results, for comparison:
CC(C)N1CCN(c2ccc(Nc3nc(OCC4CC4)c4cc[nH]c4n3)cc2)CC1 [Compound 23] = 45
CN1CC2(C1)CN(c1ccc(Nc3nc(OCC4CC4(F)F)c4cc[nH]c4n3)cc1)C2 (stereo not drawn) [Compound 31] = 46.2

Here is the next item to consider.
Lab note: CC(C)N1CCN(c2ccc(Nc3nc(OCc4ncnn4C)c4cc[nH]c4n3)cc2)CC1.O=CO [Compound 29] gave Papp at 60 min, 10 µM of 6.7

----------
Tested on: MDR1 (P-gp)
ASSAY: MDR1-MDCK permeability, bi-directional (Cyprotex)
EXPERIMENTAL_SETUP: dog
As shown below, each of these molecules has a reported efflux ratio at 60 min, 10 µM value.
Number only, please.

Some molecules with known efflux ratio at 60 min, 10 µM results, for comparison:
CC(C)N1CCN(c2ccc(Nc3nc(OCc4ncnn4C)c4cc[nH]c4n3)cc2)CC1.O=CO [Compound 29] = 54
CC(C)N1CCN(c2ccc(Nc3nc(OCC4CCOC(C)(C)C4)c4nc[nH]c4n3)cc2)CC1 (stereo not drawn) [Compound 20] = 19.7
CCN(CC)C(=O)c1ccc(Nc2nc(OCC3CCCCC3)c3nc[nH]c3n2)cc1 [Compound 5, reference compound] = 13.4
CC(C)N1CCN(c2ccc(Nc3nc(OCC4CC4)c4cc[nH]c4n3)cc2)CC1 [Compound 23] = 1.5
CN1CC2(C1)CN(c1ccc(Nc3nc(OCC4CC4(F)F)c4cc[nH]c4n3)cc1)C2 (stereo not drawn) [Compound 31] = 22

Here is the next item to consider.
Lab note: CC(C)N1CCN(c2ccc(Nc3nc(OCC4CC4)c4nc[nH]c4n3)cc2)CC1 [Compound 19] gave efflux ratio at 60 min, 10 µM of 132
